Target: recombinant human MGAT2 (Homo sapiens (Human))
Experiment: Measurement of human MGAT2 inhibitory activity
Format: biochemical
Conditions: read-out: IC50 (concentration exhibiting 50% enzyme inhibition), Table 52
experimental-endpoint: IC50 (nM)
State just the number; it will be interpreted in nM.

Entry under review: `O=C(Nc1c2c(nn1CCC1CC1)C[C@]1(CCc3cc(OCC(F)(F)F)ccc31)NC2=O)c1ccoc1` . Reported IC50?
48

Entry under review: `CS(=O)(=O)CC(=O)Nc1nn(CCCc2ccccc2)c2c1C(=O)N[C@@]1(CCc3cc(OCCCC(F)(F)F)ccc31)C2` . Reported IC50?
250

Entry under review: `CS(=O)(=O)CC(=O)Nc1c2c(nn1-c1ccc(C#N)cc1)C[C@]1(CCc3cc(OCC(F)(F)F)ccc31)NC2=O` . Reported IC50?
14

Entry under review: `CCCc1cccc(-n2nc3c(c2NC(=O)CS(C)(=O)=O)C(=O)N[C@@]2(CCc4cc(OCC(F)(F)F)ccc42)C3)c1` . Reported IC50?
380

Entry under review: `CS(=O)(=O)CC(=O)Nc1c2c(nn1CCC1CC1)C[C@]1(CCc3cc(N4CCC4)ccc31)NC2=O` . Reported IC50?
85

Entry under review: `CS(=O)(=O)CC(=O)Nc1c2c(nn1CCCC#N)C[C@]1(CCc3cc(OCC(F)(F)F)ccc31)NC2=O` . Reported IC50?
95

Entry under review: `O=C(Nc1c2c(nn1CCC1CC1)C[C@]1(CCc3cc(OCC(F)(F)F)ccc31)NC2=O)c1ncccn1` . Reported IC50?
420

###

Biological target: recombinant human MGAT2 (Homo sapiens (Human))
Test: Measurement of human MGAT2 inhibitory activity
Type: biochemical
Conditions: read-out: IC50 (concentration exhibiting 50% enzyme inhibition), Table 52
experimental-endpoint: pIC50
// pIC50: -log10(molar conc.)

Entry under review: `COCCCn1nc2c(c1NC(=O)CS(C)(=O)=O)C(=O)N[C@@]1(CCc3cc(OCCCC(F)(F)F)ccc31)C2` . Reported pIC50?
8.26

Entry under review: `CS(=O)(=O)CC(=O)Nc1c2c(nn1CCC1CC1)C[C@](c1ccc(OCC(F)(F)F)cc1)(C(F)(F)F)NC2=O` . Reported pIC50?
7.27

Entry under review: `CS(=O)(=O)CC(=O)Nc1c2c(nn1Cc1ccc(C(F)(F)F)o1)C[C@]1(CCc3cc(OCCCC(F)(F)F)ccc31)NC2=O` . Reported pIC50?
7.11

Entry under review: `CC(=O)NCC(=O)Nc1c2c(nn1CCC1CC1)C[C@]1(CCc3cc(OCCCC(F)(F)F)ccc31)NC2=O` . Reported pIC50?
6.36

Entry under review: `CS(=O)(=O)CC(=O)Nc1nn(CCOCC(F)F)c2c1C(=O)N[C@@]1(CCc3cc(OCCCC(F)(F)F)ccc31)C2` . Reported pIC50?
6.39

Entry under review: `O=C1N[C@@]2(CCc3cc(OCC(F)(F)F)ccc32)Cc2nn(CCC3CC3)c(CNC(=O)C3CS(=O)(=O)C3)c21` . Reported pIC50?
6.37

###

Would you kindly list IC50 for each of these compounds?
Target: recombinant human MGAT2 (Homo sapiens (Human), UniProt Q3SYC2)
Sequence (Q3SYC2 whole entry): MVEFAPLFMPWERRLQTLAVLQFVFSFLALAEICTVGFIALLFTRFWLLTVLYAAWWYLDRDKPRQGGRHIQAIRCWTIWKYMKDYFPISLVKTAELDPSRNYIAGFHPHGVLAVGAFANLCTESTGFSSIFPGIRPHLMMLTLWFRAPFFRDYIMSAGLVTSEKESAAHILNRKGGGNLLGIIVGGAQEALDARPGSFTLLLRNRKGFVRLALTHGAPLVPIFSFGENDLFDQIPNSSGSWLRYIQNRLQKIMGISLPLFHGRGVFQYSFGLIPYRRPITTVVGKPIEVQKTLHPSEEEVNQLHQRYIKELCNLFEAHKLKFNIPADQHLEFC
Test: Measurement of human MGAT2 inhibitory activity
Format: biochemical
Conditions: read-out: IC50 (concentration exhibiting 50% enzyme inhibition), Table 53
State just the number; it will be interpreted in nM.

Reported IC50 for recombinant human MGAT2 (Homo sapiens (Human), UniProt Q3SYC2), given N#Cc1ccc(-n2nc3c(c2NC(=O)c2cocn2)C(=O)N[C@@]2(CCc4cc(OCC(F)(F)F)ccc42)C3)nc1 [II-59] ?
33

Reported IC50 for recombinant human MGAT2 (Homo sapiens (Human), UniProt Q3SYC2), given CS(=O)(=O)CC(=O)Nc1c2c(nn1-c1ccc(C#N)cn1)C[C@]1(CCc3cc(OCC(F)(F)F)c(F)cc31)NC2=O [II-144] ?
1.05

Reported IC50 for recombinant human MGAT2 (Homo sapiens (Human), UniProt Q3SYC2), given Cc1cc(-n2nc3c(c2NC(=O)CS(C)(=O)=O)C(=O)N[C@@]2(CCc4cc(CCC(F)(F)F)ccc42)C3)nn1C [II-299] ?
1.98

Reported IC50 for recombinant human MGAT2 (Homo sapiens (Human), UniProt Q3SYC2), given COCCNC(=O)c1c2c(nn1-c1ccc(C#N)cn1)C[C@]1(CCc3cc(OCC(F)(F)F)ccc31)NC2=O [II-125] ?
63.5

Reported IC50 for recombinant human MGAT2 (Homo sapiens (Human), UniProt Q3SYC2), given Cc1ccc(-n2nc3c(c2NC(=O)CC#N)C(=O)N[C@@]2(CCOc4cc(OCC(F)(F)F)ccc42)C3)nc1 [II-263] ?
40

Reported IC50 for recombinant human MGAT2 (Homo sapiens (Human), UniProt Q3SYC2), given CS(=O)(=O)CC(=O)Nc1c2c(nn1CCCOC(F)(F)F)C[C@@]1(CCOc3cc(OCC(F)(F)F)ccc31)NC2=O [II-121] ?
2.91

Reported IC50 for recombinant human MGAT2 (Homo sapiens (Human), UniProt Q3SYC2), given CC(C)c1ccc(N2CC3(Cc4nn(-c5ccc(C#N)cn5)c(NC(=O)CS(C)(=O)=O)c4C(=O)N3)C2)cc1 [II-80] ?
9.1

Reported IC50 for recombinant human MGAT2 (Homo sapiens (Human), UniProt Q3SYC2), given CS(=O)(=O)CC(=O)Nc1c2c(nn1-c1ccc(C#N)cn1)CC1(CN(c3nc(C(F)(F)F)co3)C1)NC2=O [II-79] ?
110

Reported IC50 for recombinant human MGAT2 (Homo sapiens (Human), UniProt Q3SYC2), given N#Cc1ccc(-n2nc3c(c2C(=O)NCC2(CO)CCCC2)C(=O)N[C@@]2(CCc4cc(OCC(F)(F)F)ccc42)C3)nc1 [II-109] ?
23.1

Reported IC50 for recombinant human MGAT2 (Homo sapiens (Human), UniProt Q3SYC2), given O=C1N[C@@]2(CCc3cc(OCC(F)(F)F)ccc32)Cc2nn(CCC3CC3)c(NC(=O)[C@H]3CCCS3(=O)=O)c21 [II-81] ?
46.6

Reported IC50 for recombinant human MGAT2 (Homo sapiens (Human), UniProt Q3SYC2), given CS(=O)(=O)CC(=O)Nc1c2c(nn1CCC1CC1)C[C@@]1(CCc3cc(-c4cnn(C(F)(F)F)c4)ccc31)NC2=O [II-83] ?
1.99

Reported IC50 for recombinant human MGAT2 (Homo sapiens (Human), UniProt Q3SYC2), given Cc1ccc(-n2nc3c(c2C(=O)NCC(F)(F)F)C(=O)N[C@@]2(CCOc4cc(OCC(F)(F)F)ccc42)C3)nc1 [II-227] ?
96.4

Reported IC50 for recombinant human MGAT2 (Homo sapiens (Human), UniProt Q3SYC2), given CS(=O)(=O)CC(=O)Nc1c2c(nn1CCOCC(F)F)C[C@@]1(CCc3cc(OCC(F)(F)F)ccc31)NC2=O [II-18] ?
47

Reported IC50 for recombinant human MGAT2 (Homo sapiens (Human), UniProt Q3SYC2), given Cc1ccc(-n2nc3c(c2C(=O)NCC2(C#N)CC2)C(=O)N[C@@]2(CCc4cc(OCC(F)(F)F)ccc42)C3)cc1F [II-222] ?
53.4

Reported IC50 for recombinant human MGAT2 (Homo sapiens (Human), UniProt Q3SYC2), given N#Cc1ccc(-n2nc3c(c2C(=O)NCC2(O)CC2)C(=O)N[C@@]2(CCc4cc(OCC(F)(F)F)ccc42)C3)nc1 [II-112] ?
5.28

Reported IC50 for recombinant human MGAT2 (Homo sapiens (Human), UniProt Q3SYC2), given CCOC1CN(c2ccc3c(c2)CC[C@@]32Cc3nn(CCC4CC4)c(NC(=O)CS(C)(=O)=O)c3C(=O)N2)C1 [II-42] ?
46

Reported IC50 for recombinant human MGAT2 (Homo sapiens (Human), UniProt Q3SYC2), given CS(=O)(=O)CC(=O)Nc1c2c(nn1-c1ccc(C#N)cn1)CC1(CN(C(=O)c3ccc(C(F)(F)F)cc3)C1)NC2=O [II-29] ?
220

Reported IC50 for recombinant human MGAT2 (Homo sapiens (Human), UniProt Q3SYC2), given CC(F)(F)CNC(=O)c1c2c(nn1-c1ccc(C#N)cn1)C[C@]1(CCc3cc(OCC(F)(F)F)ccc31)NC2=O [II-184] ?
4.06

Reported IC50 for recombinant human MGAT2 (Homo sapiens (Human), UniProt Q3SYC2), given CS(=O)(=O)CC(=O)Nc1c2c(nn1CCC1CC1)C[C@@]1(CCc3cc(OCC(F)F)ccc31)NC2=O [II-77] ?
5.5

Reported IC50 for recombinant human MGAT2 (Homo sapiens (Human), UniProt Q3SYC2), given Cc1cc(-n2nc3c(c2NC(=O)CS(C)(=O)=O)C(=O)N[C@@]2(CCOc4cc(CCC(F)(F)F)ccc42)C3)no1 [II-267] ?
1

Reported IC50 for recombinant human MGAT2 (Homo sapiens (Human), UniProt Q3SYC2), given N#Cc1ccc(-n2nc3c(c2C(=O)NS(=O)(=O)CCC(F)(F)F)C(=O)N[C@@]2(CCc4cc(OCC(F)(F)F)ccc42)C3)nc1 [II-217] ?
68.9

Reported IC50 for recombinant human MGAT2 (Homo sapiens (Human), UniProt Q3SYC2), given Cc1cccc(-n2nc3c(c2NC(=O)CS(C)(=O)=O)C(=O)N[C@@]2(CCOc4cc(OCC(F)(F)F)ccc42)C3)c1 [II-5] ?
4.6

Reported IC50 for recombinant human MGAT2 (Homo sapiens (Human), UniProt Q3SYC2), given N#Cc1ccc(-n2nc3c(c2C(=O)NCC2(O)CCOC2)C(=O)N[C@@]2(CCc4cc(OCC(F)(F)F)ccc42)C3)nc1 (stereo partly shown) [II-119] ?
26.8

Reported IC50 for recombinant human MGAT2 (Homo sapiens (Human), UniProt Q3SYC2), given Cc1cc(-n2nc3c(c2NC(=O)CS(C)(=O)=O)C(=O)N[C@@]2(CCc4cc(OCC(F)(F)F)ccc42)C3)nnc1C [II-139] ?
3.15

Reported IC50 for recombinant human MGAT2 (Homo sapiens (Human), UniProt Q3SYC2), given Cc1cc(-n2nc3c(c2NC(=O)CS(C)(=O)=O)C(=O)N[C@@]2(CCc4cc(OCC(F)(F)F)ccc42)C3)ccc1F [II-149] ?
9.01

Reported IC50 for recombinant human MGAT2 (Homo sapiens (Human), UniProt Q3SYC2), given N#Cc1ccc(-n2nc3c(c2C(=O)NCC2(O)CCC2)C(=O)N[C@@]2(CCc4cc(OCC(F)(F)F)ccc42)C3)nc1 [II-108] ?
2.51

Reported IC50 for recombinant human MGAT2 (Homo sapiens (Human), UniProt Q3SYC2), given Cc1ccc(-n2nc3c(c2NC(=O)CS(C)(=O)=O)C(=O)N[C@@]2(CCc4cc(N5CC(F)(F)C5)ccc42)C3)nc1 [II-120] ?
9.29

Reported IC50 for recombinant human MGAT2 (Homo sapiens (Human), UniProt Q3SYC2), given Cc1ccc(-n2nc3c(c2C(=O)NCC(F)(F)F)C(=O)N[C@@](c2ccc(OCC(F)(F)F)cc2F)(C(F)(F)F)C3)nc1 [II-240] ?
14.3

Recorded values, source patent US11198695B2.
